Values compiled from patent US20240400701A1.

Biological target: T1, human AMHRII (anti-Mullerian hormone receptor type 2) (human, UniProt Q16671 18-573)
T1 construct: whole, on cells; also called AMHR2; human AMHR2
T1 sequence (looked up): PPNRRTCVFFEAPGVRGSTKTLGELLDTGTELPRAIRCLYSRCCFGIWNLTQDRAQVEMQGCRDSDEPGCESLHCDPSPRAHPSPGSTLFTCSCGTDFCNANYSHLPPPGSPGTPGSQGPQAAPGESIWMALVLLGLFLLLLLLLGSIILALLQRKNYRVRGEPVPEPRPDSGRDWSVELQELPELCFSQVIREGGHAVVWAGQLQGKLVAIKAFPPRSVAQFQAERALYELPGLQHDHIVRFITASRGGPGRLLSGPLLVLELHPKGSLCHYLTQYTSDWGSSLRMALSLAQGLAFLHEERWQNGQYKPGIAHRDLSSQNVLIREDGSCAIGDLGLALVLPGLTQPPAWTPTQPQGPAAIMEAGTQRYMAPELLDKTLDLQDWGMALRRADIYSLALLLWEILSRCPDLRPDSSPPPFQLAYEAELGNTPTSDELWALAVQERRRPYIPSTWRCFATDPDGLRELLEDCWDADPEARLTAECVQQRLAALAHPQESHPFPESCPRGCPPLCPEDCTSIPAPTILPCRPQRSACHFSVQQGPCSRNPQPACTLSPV
Assay: FACS on CHO-K1 cells over-expressing human AMHR2
Recorded pEC50, one value per entry.
# pEC50 = -log10(concentration in molar units)

Guide cases for pEC50, answers given:
binder	pEC50
31D9B3 H4L4 hIgG1 (antibody, V domains shown, Humanized, human IgG1; also called 31D9B3 H4L4 hlgG1) VH: QVQLVQSGAEVVKPGASVKMSCKASGYTFTDYWVSWVKQSPGQGLEWIGEIYPKNGVSNFNEKFKGKATLTVDKSTSTAYMELRRLRSDDTAVFYCTRQRDYWGQGVLVTVSS VL: DVVLTQSPLSLPVTLGQPASISCRSSQSLEYGDGYTYLEWYLQRPGQSPQLLIYGVSNRFSGVPDRFIGSGSGTDFTLKISRVEPEDVGVYYCFQATHDPNTFGAGTKLEIK	9.12
31D9B3 H4L3 hIgG1 (antibody, V domains shown, Humanized, human IgG1; also called 31D9B3 H4L3 hlgG1) VH: QVQLVQSGAEVVKPGASVKMSCKASGYTFTDYWVSWVKQSPGQGLEWIGEIYPKNGVSNFNEKFKGKATLTVDKSTSTAYMELRRLRSDDTAVFYCTRQRDYWGQGVLVTVSS VL: DVVMTQSPLSLPVTLGQPASISCRSSQSLEYGDGYTYLEWYLQRPGQSPRLLIYGVSNRFSGVPDRFIGSGSGTDFTLKISRVEAEDVGVYYCFQATHDPNTFGAGTKLEIK	9.08

Next binder, pEC50 to be filled in.
What value of pEC50 has been recorded for this entry: 31D9B3 H3L4 hIgG1 (antibody, V domains shown, Humanized, human IgG1; also called 31D9B3 H3L4 hlgG1) VH: QVQLVQSGAEVKVPGASVKMSCKASGYTFTDYWVSWVRQSPGQGLEWIGEIYPKNGVSNFNEKFKGRVTLTVDKSTSTAYMELRSLRSDDTAVYYCTRQRDYWGQGVLVTVSS VL: DVVLTQSPLSLPVTLGQPASISCRSSQSLEYGDGYTYLEWYLQRPGQSPQLLIYGVSNRFSGVPDRFIGSGSGTDFTLKISRVEPEDVGVYYCFQATHDPNTFGAGTKLEIK 9.00
